From: patent US20170267766A1

SYSTEM TESTED: monkey IGF-1R (on COS-7 cells) (African green monkey)
ASSAY EXPLANATION: cell-based or functional assay
ΔMFI for assorted binders
All answers are understood in MFI, so give the number only.

The cases that follow already have their ΔMFI on record.
BINDER | NUMERIC VALUE
m213B10 (antibody, V domains shown, murine mAb, hybridoma CNCM I-4774, group G2) VH: QVQLQQSGSELVKPGASVKMSCKASGYTFTSYYIHWVKQRPGQGLEWIGWIWPGDGSTKYNERFKGKTTLTADKSSSTAYMFLSSLTSEDSAVYFCASPMITPNYAMDYWGQGASVTVSS VL: DIQMTQTTSSLSASLGDRVTISCRASQDISKYLNWYQQQPDGTIKLLIYYTSRLHSGVPSRFSGRGSGTDYSLTITNLEQEDIATYFCQQGSALPYTFGGGTKLEIK | 84
c212A11 (antibody, human IgG1, kappa, V domains shown, group G2; also called chimeric 212A11) VH: QVQLQQSGPELVKPGASVKMSCKASGYTFTSYYIHWVKQRPGQGLEWIGWIWPGDGSTKYNEKFKGKTTLTADKSSSTAYMFLSSLTSEDSAVYFCASPMITPNYAMDYWGQGASVTVSS VL: DIQMTQTTSSLSASLGDRVTISCRASQDINKYLNWYQQQPDGTVKLLIYYTSRLHSGVPSRFSGRGSGTDYSLTISNLEQEDIATYFCQQGSTLPYTFGGGTKLEIKR | 98

Alright, here's another binder for you.
GET /value?item= c208F2 (antibody, human IgG1, kappa, V domains shown, group G2; also called chimeric 208F2) VH: QVQLQQSGPELVKPGASVKMSCKASGYTFTSYYIYWVKQRPGQGLEWLGWIWPGDGSTKYNEKFKDKTTLTADKSSNTAYMFLSSLTSEDSAVYFCASPMITPNYAMDYWGQGASVTVSS VL: DIQMTQTTSSLSASLGDRVTISCRASQDISKYLNWYQQQPDGTIKLLIYYTSRLHSGVPSRFSGRGSGTDYSLTISNVEQEDIATYFCQQGSTLPYTFGGGTKLEIKR &field=ΔMFI returns 52
